Target: dopamine D2 receptor (Bos taurus)
Construct: from tissue; host or cells: bovine corpus striatum, washed membrane fractions
Assay: Dopamine D2 receptor binding assay (displacement of [3H] spiperone, membrane fractions of corpus striatum)
Parameters: species or system bovine
PROPERTY_NAME: Ki
Please state the number and follow it with the unit.

Q. What value of Ki has been reported for the following compound? O=C1CC2(CCCC2)CC(=O)N1CCCCN1CCN(c2nsc3ccccc23)CC1 [Tiaspirone]
A. 500 pM

* * *

Target: dopamine D2 receptor (Bos taurus, UniProt P20288)
Construct: from tissue; host or cells: bovine corpus striatum, washed membrane fractions
Sequence (P20288 whole entry): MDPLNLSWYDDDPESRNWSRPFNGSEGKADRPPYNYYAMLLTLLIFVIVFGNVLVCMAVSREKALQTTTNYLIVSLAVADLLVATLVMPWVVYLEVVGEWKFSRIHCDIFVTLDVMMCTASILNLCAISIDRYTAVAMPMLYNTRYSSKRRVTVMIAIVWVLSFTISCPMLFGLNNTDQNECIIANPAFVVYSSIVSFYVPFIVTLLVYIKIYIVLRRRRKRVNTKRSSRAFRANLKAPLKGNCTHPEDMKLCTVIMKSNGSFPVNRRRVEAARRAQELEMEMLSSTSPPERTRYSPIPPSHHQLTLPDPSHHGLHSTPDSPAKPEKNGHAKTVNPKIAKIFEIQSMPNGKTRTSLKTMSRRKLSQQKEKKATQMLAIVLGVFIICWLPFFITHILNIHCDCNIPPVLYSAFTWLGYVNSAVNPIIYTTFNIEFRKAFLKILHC
Experiment: Dopamine D2 receptor binding assay (displacement of [3H] spiperone, membrane fractions of corpus striatum)
Design: species or system bovine
Settings: [3H] spiperone 1 nM, 37° C., 30 minutes, bovine corpus striatum membranes; read-out: Ki
Experimental: Fresh corpus striatum taken out from bovine brain was homogenized in a 20-fold dilution of Tris-HCl buffer solution (pH, 7.4; 0.05 M) and centrifuged (50,000×g) for 10 minutes to give the membrane fractions, which were washed with the same volume of the buffer solution twice to give the membrane fractions for assay. […]
PROPERTY_NAME: pKi
Scale explanation: pKi corresponds to minus log10 of a concentration expressed in moles per litre.

Q. What value of pKi has been reported for the following molecule? O=C1C2CCCCC2C(=O)N1CCCCN1CCC(c2noc3cc(F)ccc23)CC1 (stereo not shown)
A. 9.43
